From: ChEMBL document CHEMBL1201862

system: COLO 205; test: NCI tumour cell line growth inhibition, 48 h
Active and inactive are the calls of the source. Cut-off read from the data, not from the text of the source: active = GI50 up to about 1.1 µM and inactive = higher.
Consider the following compounds and their measured GI50 readings.

// known answers, use as guide
compound: CC(C)N1CN(c2ccccc2)C2(CCN(CCCC(=O)c3ccc(F)cc3)CC2)C1=O
GI50: 0.483 µM (active)

compound: Cc1nc2c(o1)/C(=N\c1ccccc1)c1nc(C)oc1/C2=N/c1ccccc1
GI50: 33.1 µM (inactive)

compound: CC(C)C1NC(=O)[C@H](C)OC(=O)[C@@H](C(C)C)NC(=O)[C@@H](C)OC(=O)C(C(C)C)NC(=O)[C@H](C)OC1=O (stereo partly specified)
GI50: > 54.6 µM (inactive)

Report GI50 for Cc1cc(NS(=O)(=O)c2ccc(NC(=O)c3ccc4nc5ccccc5c(Nc5ccc(S(=O)(=O)N=C(N)N)cc5)c4c3)cc2)no1 tested on COLO 205.
18.8 µM (inactive)
